// data source = patent US10793576B2

- assay-comment: Pharmacokinetic test in SD rats (oral 10 mg/kg, intravenous 1 mg/kg)
- Format: in vivo
- setup-conditions: male, plasma; SD rat, intravenous 1 mg/kg; read-out: T½ (iv) h (converted)
property-label: half-life
Put down the number, then write its unit next to it.

// solved cases for half-life follow
C=CC(=O)N1CC2CCCC2C1c1nc(-c2ccc(C(=O)Nc3ccccn3)cc2)c2c(N)nccn12 (centres unmarked) [Example 3]
37.2 min
C=CC(=O)N1C2CC[C@@H](C2)C1c1nc(-c2ccc(C(C)(O)c3ccccc3)cc2)c2c(N)nccn12 (some centres unmarked) [Example 79]
31.2 min
C=CC(=O)N1C2CCC1(c1nc(-c3ccc(C(=O)Nc4ccccn4)cc3)c3c(N)nccn13)COC2 (centres unmarked) [Example 11]
28.2 min
C=CC(=O)N1CC2CCCC2C1c1nc(-c2ccc(Oc3ccccc3)cc2)c2c(N)nccn12 (centres unmarked) [Example 96]
33 min
CC#CC(=O)N1CCC[C@H]1c1nc(-c2ccc(C(=O)Nc3ccccn3)cc2)c2c(N)nccn12 [ACP-196, reference compound]
7.8 min

Entry under review: C=CC(=O)N1[C@@H]2CC[C@@H](C2)[C@H]1c1nc(-c2ccc(C(=O)Nc3ccccn3)cc2)c2c(N)nccn12 [Example 22] . Reported half-life?
36 min

Please look up its half-life: CC#CC(=O)N1C2CC[C@@H](C2)C1c1nc(-c2ccc(C(=O)Nc3cc(C(F)(F)F)ccn3)cc2)c2c(N)nccn12 (some centres unmarked) [Example 47]
18 min

Need half-life, item C=CC(=O)N1C[C@H]2[C@@H]([C@H]1c1nc(-c3ccc(C(=O)Nc4ccccn4)cc3)c3c(N)nccn13)C2(C)C [Example 5]
7.8 min

###

- Test system: DOHH2 cells
- assay-comment: Cell proliferation inhibition in vitro, DOHH2 cells by CTG assay
- Format: cell-based
- setup-conditions: Homo sapiens, DOHH-2, 72 hours, read-out: Inhibitions of cell activities IC50 (nM) DOHH2
property-label: IC50

Please review the following examples before continuing.
C=CC(=O)N1CC2(CC2)C[C@H]1c1nc(-c2ccc(Oc3ccccc3)cc2)c2c(N)nccn12
318 nM
CC#CC(=O)N1C2CN[C@@H](C2)C1c1nc(-c2ccc(C(=O)Nc3ccccn3)cc2)c2c(N)nccn12 (some centres unmarked)
> 1000 nM
CC#CC(=O)N1C2CN[C@@H](C2)C1c1nc(-c2ccc(Oc3ccccc3)cc2)c2c(N)nccn12 (some centres unmarked)
986 nM

Consider the molecule shown here: CC#CC(=O)N1C2CCC1(c1nc(-c3ccc(Oc4ccccc4)cc3)c3c(N)nccn13)COC2 (centres unmarked) What is its recorded IC50?
916 nM

###

AUC by entry:
- assay-comment: Pharmacokinetic test in SD rats (oral 10 mg/kg, intravenous 1 mg/kg)
- Assay type: in vivo
- setup-conditions: male, plasma; SD rat, oral 10 mg/kg

Reference set (4 entries):
C=CC(=O)N1C[C@H]2[C@@H]([C@H]1c1nc(-c3ccc(C(=O)Nc4ccccn4)cc3)c3c(N)nccn13)C2(C)C
278 ng·h/mL
CC#CC(=O)N1C2CC[C@@H](C2)C1c1nc(-c2ccc(C(=O)Nc3cc(C(F)(F)F)ccn3)cc2)c2c(N)nccn12 (some centres unmarked)
971 ng·h/mL
C=CC(=O)N1C2CCC1(c1nc(-c3ccc(C(=O)Nc4ccccn4)cc3)c3c(N)nccn13)COC2 (centres unmarked)
1580 ng·h/mL
CC#CC(=O)N1CCC[C@H]1c1nc(-c2ccc(C(=O)Nc3ccccn3)cc2)c2c(N)nccn12 [ACP-196, reference compound]
266 ng·h/mL

Next up:
Consider the compound "C=CC(=O)N1[C@@H]2CC[C@@H](C2)[C@H]1c1nc(-c2ccc(C(=O)Nc3ccccn3)cc2)c2c(N)nccn12" and give its measured AUC.
1040 ng·h/mL

###

- assay-comment: Pharmacokinetic test in SD rats (oral 10 mg/kg, intravenous 1 mg/kg)
- Type: in vivo
- setup-conditions: male, plasma; SD rat, oral 10 mg/kg
- Method: SD rat, male (purchased from Shanghai Sippr-Bk Laboratory Animal Co., Ltd.), each tested compound was administered at a single dose to SD rats by oral administration (10 mg/kg, 3 rats in each group) and intravenous administration (1 mg/kg, 3 rats in each group) for the pharmacokinetic study. […] 200 μL of supernatant was taken and added to a 96-well sample plate and the samples were analyzed by LC-MS/MS.
property-label: Tmax (min)
Give your result in min as a bare value.

C=CC(=O)N1C2CC[C@@H](C2)C1c1nc(-c2ccc(C(C)(O)c3ccccc3)cc2)c2c(N)nccn12 (stereo partly drawn) [Example 79]
12.6

What value of Tmax has been reported for the following molecule? C=CC(=O)N1[C@@H]2CC[C@@H](C2)[C@H]1c1nc(-c2ccc(C(=O)Nc3ccccn3)cc2)c2c(N)nccn12 [Example 22]
15

For the molecule shown here, C=CC(=O)N1C2CCC1(c1nc(-c3ccc(C(=O)Nc4ccccn4)cc3)c3c(N)nccn13)COC2 (stereo not drawn) [Example 11] , give the reported Tmax.
19.8

###

Reported values of IC50 for individual entries
- Test system: TMD8 cells
- assay-comment: Cell proliferation inhibition in vitro, TMD8 cells by CCK-8 method
- Format: cell-based
- setup-conditions: Homo sapiens, 72 hours, read-out: Inhibitions of cell activities IC50 (nM) TMD8
Give the value; after it, write the unit.

Reference set (5 entries):
C=CC(=O)N1C2C[C@@H](C1c1nc(-c3ccc(C(=O)Nc4ccccn4)cc3)c3c(N)nccn13)N(C(C)=O)C2 (some centres unmarked) [Example 18]
1.6 nM
C=CC(=O)N1CC2CCCC2C1c1nc(-c2ccc(C(=O)Nc3ccccn3)cc2)c2c(N)nccn12 (centres unmarked) [Example 3]
0.26 nM
C=CC(=O)N1C2C[C@@H](C1c1nc(-c3ccc(C(=O)Nc4cc(C(F)(F)F)ccn4)cc3)c3c(N)nccn13)N(C)C2 (some centres unmarked) [Example 54]
0.15 nM
CC#CC(=O)N1C2C[C@@H](C1c1nc(-c3ccc(C(C)(O)c4ccccc4)cc3)c3c(N)nccn13)N(C(C)C)C2 (some centres unmarked) [Example 91]
1.4 nM
C=CC(=O)N1C2CCC1(c1nc(-c3ccc(Oc4ccccc4)cc3)c3c(N)nccn13)COC2 (centres unmarked) [Example 104]
3.6 nM

Fill in the recorded IC50 for this compound, with TMD8 cells as test system: CC#CC(=O)N1C2CCC1(c1nc(-c3ccc(Oc4ccccc4)cc3)c3c(N)nccn13)COC2 (centres unmarked) [Example 105]
8.4 nM

Record lookup: for TMD8 cells, what IC50 belongs to CC#CC(=O)N1CCC[C@H]1c1nc(-c2ccc(C(=O)Nc3ccccn3)cc2)c2c(N)nccn12 [ACP-196, reference compound] ?
1.3 nM

Give recorded IC50 with TMD8 cells for the following compound: C=CC(=O)N1CCC[C@@H](n2nc(-c3ccc(Oc4ccccc4)cc3)c3c(N)ncnc32)C1 [Ibrutinib, reference compound]
0.28 nM

Report IC50 for C=CC(=O)N1CC2CCC1(c1nc(-c3ccc(C(=O)Nc4ccccn4)cc3)c3c(N)nccn13)CC2 [Example 120] tested on TMD8 cells.
6.4 nM

Any idea what IC50 came out for CC#CC(=O)N1C2CCC1(c1nc(-c3ccc(C(C)(O)c4ccccc4)cc3)c3c(N)nccn13)COC2 (centres unmarked) [Example 85] on TMD8 cells?
18.2 nM

Observed IC50 on TMD8 cells for CC#CC(=O)N1C2CC[C@@H](C2)C1c1nc(-c2ccc(C(C)(O)c3ccccc3)cc2)c2c(N)nccn12 (some centres unmarked) [Example 80] , please.
4.3 nM

###

The molecules below have reported pIC50 for BTK kinase (Homo sapiens (Human), UniProt Q06187).
Just the number, please; pIC50 means minus log10 of the concentration in mol/L.

Sample answers from the record:
C=CC(=O)N1C2CCC1(c1nc(-c3ccc(C(C)(O)c4ccccc4)cc3)c3c(N)nccn13)COC2 (stereo not drawn) [Example 84]
7.79
CC#CC(=O)N1C2C[C@@H](C1c1nc(-c3ccc(C(=O)Nc4ccccn4)cc3)c3c(N)nccn13)N(C(C)C)C2 (stereo partly drawn) [Example 17]
7.32
CC#CC(=O)N1C2CCC1(c1nc(-c3ccc(C(=O)Nc4cc(C(F)(F)F)ccn4)cc3)c3c(N)nccn13)COC2 (stereo not drawn) [Example 49]
8.32

GET /values?readout=pIC50&system=BTK kinase (Homo sapiens (Human), UniProt Q06187)&item= CC#CC(=O)N1CC2(CC2)C[C@H]1c1nc(-c2ccc(C(=O)Nc3ccccn3)cc2)c2c(N)nccn12 [Example 1]
7.08

Param readout = pIC50; param system = BTK kinase (Homo sapiens (Human), UniProt Q06187); param query = CC#CC(=O)N1[C@@H]2CC[C@@H](C2)[C@H]1c1nc(-c2ccc(C(=O)Nc3ccccn3)cc2)c2c(N)nccn12 [Example 23] ; response: value
Sequence (Q06187 whole entry): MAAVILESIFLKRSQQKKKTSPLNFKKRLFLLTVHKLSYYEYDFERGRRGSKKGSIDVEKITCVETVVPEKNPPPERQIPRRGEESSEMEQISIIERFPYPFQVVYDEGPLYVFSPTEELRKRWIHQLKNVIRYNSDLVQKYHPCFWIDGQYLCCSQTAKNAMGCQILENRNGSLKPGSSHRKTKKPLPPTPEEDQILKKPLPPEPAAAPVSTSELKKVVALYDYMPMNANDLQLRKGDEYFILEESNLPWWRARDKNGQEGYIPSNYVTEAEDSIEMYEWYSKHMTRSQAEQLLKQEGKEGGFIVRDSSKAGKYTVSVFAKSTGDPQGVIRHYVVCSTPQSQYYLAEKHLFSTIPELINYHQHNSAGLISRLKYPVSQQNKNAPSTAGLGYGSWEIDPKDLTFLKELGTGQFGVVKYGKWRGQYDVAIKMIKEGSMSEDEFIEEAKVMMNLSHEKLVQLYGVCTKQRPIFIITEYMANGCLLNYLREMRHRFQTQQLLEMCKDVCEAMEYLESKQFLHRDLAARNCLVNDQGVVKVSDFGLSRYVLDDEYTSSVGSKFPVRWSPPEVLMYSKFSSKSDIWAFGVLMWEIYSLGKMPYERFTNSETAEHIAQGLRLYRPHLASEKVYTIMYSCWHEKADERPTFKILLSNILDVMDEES
7.31

API: value(readout=pIC50, system=BTK kinase (Homo sapiens (Human), UniProt Q06187)) for record CC#CC(=O)N1CC2COC[C@]2(c2nc(-c3ccc(C(=O)Nc4ccccn4)cc3)c3c(N)nccn23)C1 (stereo partly drawn) [Example 39]
7.17
